System: CP325
Experiment: qHTS profiling for inhibitors of Plasmodium falciparum proliferation (AID 504749); note: nearly all actives have a fitted effect of over 60% in size
Conditions: P. falciparum in erythrocytes, SYBR Green DNA, 72 h; series mostly up to 28.7 µM
Protocol: NIH National Institute of Allergy and Infectious Diseases [NIAID] NIH Chemical Genomics Center [NCGC] […] Because mature erythrocytes lack DNA, only Plasmodium-derived DNA is detected. NCGC Assay Protocol Summary: The SYBR Green viability assay was adapted from a method described previously (Plouffe et al., 2008). […] The following morning, fluorescence intensity at 485(14) nm excitation and 535(25) nm emission wavelengths was measured on an EnVision (Perkin Elmer) plate reader. […]
Results filed as inconclusive are left out. Active and inactive are the calls of the source. Calls come from the whole dose curve; as a rule, active = well fitted inhibition curve with a large enough effect; inconclusive = small, poorly fitted or top-dose-only effect; inactive = flat fitted curve, though single readings scatter.
Hi! Could you answer with just one of these? active, inactive

input: Entry COc1ccc2c(c1OC)C(=O)OC2[C@H]1c2c(cc3c(c2OC)OCO3)CCN1C (stereo partly specified) : call = ?
output: inactive

input: Field: outcome | Entry: `COc1ccc([C@@H]2CNC(=O)C2)cc1OC1CCCC1`
output: inactive

input: What classification did COc1cccc2c1C(=O)c1c(O)c3c(c(O)c1C2=O)C[C@@](O)(C(=O)CO)C[C@@H]3O[C@H]1C[C@H](N)[C@H](OC2CCCCO2)[C@H](C)O1 (stereo partly specified) end up with in this test?
output: active

input: What is the recorded call for this compound in the test? `Nc1nc2c(c(=O)[nH]1)N(C=O)[C@H](CNc1ccc(C(=O)N[C@@H](CCC(=O)O)C(=O)O)cc1)CN2`
output: inactive

input: Hey, what did the test say about CCC(C(=O)O)C1CCC(C)C(C(C)C(O)C(C)C(=O)C(CC)C2OC3(C=CC(O)[C@@]4(CC[C@](C)(C5CC[C@@](O)(CC)C(C)O5)O4)O3)C(C)CC2C)O1 (stereo partly specified) ?
output: active

input: In this assay, the call recorded for OCC(O)C(O)C(O)CO (stereo unspecified) was what?
output: inactive

* * *

Assay: Quantitative High-Throughput drug screen in 47 multiple myeloma cell lines against the NCATS MIPE library collection: KMS11_JCRBsus cell viability assay (AID 1919873); note: nearly all actives have a fitted effect of over 50% in size
Conditions: KMS11 myeloma viability, CellTiter-Glo ATP luminescence, 48 h; series mostly up to 45.8 µM
Records with an inconclusive call do not appear. Activity calls are given as the source filed them. Calls come from the whole dose curve; as a rule, active = well fitted cell-killing curve with a large enough effect; inconclusive = small, poorly fitted or top-dose-only effect, or effect the other way; inactive = no such curve, though single readings can be large or run the other way.
Reply using exactly one outcome from 1 (yes) for active, 0 (no) for inactive

Worked examples, 3 compounds total:
C[C@@H](Cc1cc2c(c(C(N)=O)c1)N(CCCO)CC2)NCCOc1ccccc1OCC(F)(F)F :: 0 (no)
Cc1nc(NC(=O)N2CCC[C@@H]2C(N)=O)sc1-c1ccnc(C(C)(C)C(F)(F)F)c1 :: 1 (yes)
NS(=O)(=O)OC[C@@H]1C[C@@H](n2ccc3c(N[C@H]4CCc5ccccc54)ncnc32)C[C@H]1O :: 1 (yes)

input: For `CCCCCCCCCCCCc1ccc(S(=O)(=O)Nc2nncs2)cc1` , which call appears in the assay record?
output: 0 (no)

input: Per the assay record, what outcome was assigned to COc1ccc2c(c1OC)C(=O)OC2[C@H]1c2c(cc3c(c2OC)OCO3)CCN1C (stereo partly drawn) ?
output: 1 (yes)

input: Can you look up the reported call for `C[C@]12CC[C@@H]3c4ccc(O)cc4CC[C@H]3[C@H]1CC[C@H]2O` for me?
output: 1 (yes)

input: Could you check what this test reported for `O=C(c1ccc(F)cc1)N1CCC[C@H](c2nc(-c3ccc(F)cc3)no2)C1` ?
output: 0 (no)

input: Can you look up the reported call for `COc1ccc(CCC(=O)c2c(O)cc(O[C@@H]3O[C@H](CO)[C@@H](O)[C@H](O)[C@@H]3O[C@@H]3O[C@@H](C)[C@H](O)[C@@H](O)[C@@H]3O)cc2O)cc1O` for me?
output: 0 (no)

Every entry's value here was drawn from PubChem BioAssay (NCATS).
